Where these numbers come from: PubChem BioAssay (NCI)

Test system: SNB-19 CNS
Experiment: NCI tumour cell line growth inhibition, 48 h

QUERY SMILES | UNIT | QUALIFIER OPERATOR | TGI
C[P+]1(c2ccccc2)CCCCC1 | µM | > | 100
COC(=O)c1ccc(C=C(C#N)C#N)cc1 | µM | > | 100
C=C1C(=O)O[C@H]2[C@H]1CC/C(COC(=O)NCc1c[nH]c3ccc(F)cc13)=C\CC[C@@]1(C)O[C@@H]21 | µM | = | 20
Clc1ccc([I+]c2ccc(Cl)cc2Cl)c(Cl)c1 | µM | = | 15.9
